Origin of values: PubChem BioAssay (NCI)

Answer each item with its documented GI50.
- System: HOP-62 NSCLC
- assay_comment: NCI tumour cell line growth inhibition, 48 h

Give the reported value of GI50 for this record: O=C1Nc2ccc(C(=O)c3ccco3)cc2/C1=C/c1cc(Cl)c(O)c(Cl)c1
7.45 µM

Give the reported value of GI50 for this record: Cn1c([N+](=O)[O-])cnc1/C=C1\Oc2ccccc2C1=O
1.07 µM

Give the reported value of GI50 for this record: Nc1c(C(=O)c2ccc(Cl)cc2)sc(Nc2ccccc2)c1-c1nc2ccccc2s1
3.71 µM

Give the reported value of GI50 for this record: Cc1cc(C)c([O-])c(CN(C)CCN(C)Cc2cc(C)cc(C)c2[O-])c1.O=C([O-])c1cccc(C(=O)[O-])n1.[Ti+4]
2.92 µM

Give the reported value of GI50 for this record: Cc1cc(I)cc(CN(C)CCCN2CCSCC2)c1O
18.4 µM

Give the reported value of GI50 for this record: O=c1c(Oc2ccc(F)cc2F)cc2cnc(NC3CCOCC3)nc2n1C1CCS(=O)(=O)CC1
> 25 µM

Give the reported value of GI50 for this record: NOCC(=O)O
> 100 µM

Give the reported value of GI50 for this record: O=S(=O)(NC1=NCCN1C(=S)SN1CCn2c1nsc2=S)c1ccc(Br)cc1
52.4 µM

Give the reported value of GI50 for this record: Cc1ccccc1NC(=O)N/C(N)=N/c1nc(-c2cccc([N+](=O)[O-])c2)cs1
1.92 µM

Give the reported value of GI50 for this record: Cc1nc2sc(C(=O)Nc3cccc(Cl)c3C)c(N)c2cc1C(=O)/C=C/c1ccccc1
0.339 µM
